Source listed as patent US20210255193A1.

- TARGET UNDER TEST: PNPO Pyridoxine-5-phosphate oxidase (Homo sapiens)
- Construct: endogenous in cells; host or cells: MDA-MB-231 (soluble fraction of lysate)
- Sequence (Q9NVS9 whole entry): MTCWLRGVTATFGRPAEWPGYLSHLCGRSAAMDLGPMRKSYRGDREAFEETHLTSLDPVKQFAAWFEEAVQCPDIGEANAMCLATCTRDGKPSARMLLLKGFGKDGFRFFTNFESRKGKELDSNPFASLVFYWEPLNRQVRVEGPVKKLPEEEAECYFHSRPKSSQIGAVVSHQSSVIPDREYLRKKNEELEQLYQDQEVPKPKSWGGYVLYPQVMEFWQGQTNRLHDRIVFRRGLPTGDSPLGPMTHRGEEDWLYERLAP
- ASSAY INFO: competitive isoTOP-ABPP
- Type: binding
- RECORDED CONDITIONS: 50 uM, 231 sol, in vitro
REPORTED METRIC: isoTOP-ABPP reactivity ratio at lysine Q9NVS9_K100

O=C(CN1C(=O)c2ccccc2C1=O)Oc1c(F)c(F)c(F)c(F)c1F [fragment 27] ... 1.0

P: O=C(Oc1c(F)c(F)c(F)c(F)c1F)C1CCN(C(=O)OCc2ccccc2)CC1 [fragment 24]
Q: O=C(CCc1coc2cc(F)ccc2c1=O)Oc1c(F)c(F)c(F)c(F)c1F [fragment 26]
### Prompt // task: argmin of isoTOP-ABPP reactivity ratio at lysine Q9NVS9_K100 over [ P , Q ] Reply briefly: the label of your chosen item.
### Response P
(P: 0.9, Q: 1.4)
